System: 616215-338-R-J1-PDC complex spheroid viability
Test: Anticancer human tumor 616215-338-R-J1-PDC patient-derived colon adenocarcinoma cell line growth inhibition [POLQ]
Settings: second compound 3.16 µM; first compound 0.1 µM; hits give low values
property_name: viability, T/C (%)
The response must be a number in % with no trailing unit.

# molecule, viability, T/C [%]
measured = [
    ("CC[C@@]1(O)C(=O)OCc2c1cc1n(c2=O)Cc2cc3c(CN(C)C)c(O)ccc3nc2-1 + Cc1cccc(N(C)C(=O)C2C(O)CCN2c2nc(C)cc(C(F)(F)F)c2C#N)c1", 78.8),
]

response.value for C=CCn1c(=O)c2cnc(Nc3ccc(N4CCN(C)CC4)cc3)nc2n1-c1cccc(C(C)(C)O)n1 + Nc1ccc(C#CCN(C(=O)Cc2ncc(C(F)(F)F)cc2C(F)(F)F)c2ccc(F)cc2)nn1 (field: viability, T/C) = 87.9

Per the record, COc1cc2cc(C(=O)CCC(=O)O)sc2cc1OC + Nc1ccc(C#CCN(C(=O)Cc2ncc(C(F)(F)F)cc2C(F)(F)F)c2ccc(F)cc2)nn1 has viability, T/C of 101

Query CCc1cc2c(N3CCc4c(cc(Cn5ccnc5)cc4-c4cn(C)nc4C(F)(F)F)C3=O)ccnc2c(OC)n1 + Cc1cccc(N(C)C(=O)C2C(O)CCN2c2nc(C)cc(C(F)(F)F)c2C#N)c1 yields viability, T/C of 94.8

The reported viability, T/C of the molecule C=CC(=O)N1CCN(c2nc(=O)n(-c3c(C)ccnc3C(C)C)c3nc(-c4c(O)cccc4F)c(F)cc23)C(C)C1 (stereo not given) + COC1C(OC(N)=O)C(O)C(Oc2ccc3c(O)c(NC(=O)c4ccc(O)c(CC=C(C)C)c4)c(=O)oc3c2C)OC1(C)C was 103

---

Test system: 616215-338-R-J1-PDC complex spheroid viability
Assay: Anticancer human tumor 616215-338-R-J1-PDC cell line growth inhibition [POLQ];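 also: spheroids exposed to compounds for one week before readout; percent viability relative to DMSO vehicle wells taken as 100%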
Conditions: second compound 1 µM; first compound 0.00316 µM; hits give low values
property_name: viability, T/C (%)
A number alone suffices; assume %.

Short answer on 616215-338-R-J1-PDC complex spheroid viability for Cn1ncnc1[C@H]1c2n[nH]c(=O)c3cc(F)cc(c23)N[C@@H]1c1ccc(F)cc1 + Nc1ccc(C#CCN(C(=O)Cc2ncc(C(F)(F)F)cc2C(F)(F)F)c2ccc(F)cc2)nn1 , viability, T/C: 110

viability, T/C of Cn1ncnc1[C@H]1c2n[nH]c(=O)c3cc(F)cc(c23)N[C@@H]1c1ccc(F)cc1 + COC1C(OC(N)=O)C(O)C(Oc2ccc3c(O)c(NC(=O)c4ccc(O)c(CC=C(C)C)c4)c(=O)oc3c2C)OC1(C)C , assay on 616215-338-R-J1-PDC complex spheroid viability, is 108

The compound COc1cccc(OCCCN)c1-c1cc(Nc2cnc(C#N)cn2)n[nH]1 + COC1C(OC(N)=O)C(O)C(Oc2ccc3c(O)c(NC(=O)c4ccc(O)c(CC=C(C)C)c4)c(=O)oc3c2C)OC1(C)C on 616215-338-R-J1-PDC complex spheroid viability: viability, T/C was 103

Value sought: viability, T/C, system 616215-338-R-J1-PDC complex spheroid viability, item C=CCn1c(=O)c2cnc(Nc3ccc(N4CCN(C)CC4)cc3)nc2n1-c1cccc(C(C)(C)O)n1 + COC1C(OC(N)=O)C(O)C(Oc2ccc3c(O)c(NC(=O)c4ccc(O)c(CC=C(C)C)c4)c(=O)oc3c2C)OC1(C)C . Result: 105

Observed viability, T/C, 616215-338-R-J1-PDC complex spheroid viability, CC[C@@]1(O)C(=O)OCc2c1cc1n(c2=O)Cc2cc3c(CN(C)C)c(O)ccc3nc2-1 + COC1C(OC(N)=O)C(O)C(Oc2ccc3c(O)c(NC(=O)c4ccc(O)c(CC=C(C)C)c4)c(=O)oc3c2C)OC1(C)C : 98.5

These data points were gathered from PubChem BioAssay AID1963843.
